pEC50 overview
# Organism: Mus musculus
# Assay notes: In vitro reversal activity versus ~90% block by rocuronium in isolated mouse hemidiaphragm, expressed as effective conc.
# Assay type: functional
pEC50: −log10 of the molar value.
Experimental endpoint: pEC50

Molecule | Result operator | Observed value
O=C([O-])CCCSCC1O[C@@H]2O[C@@H]3C(CSCCCC(=O)[O-])O[C@H](O[C@@H]4C(CSCCCC(=O)[O-])O[C@H](O[C@@H]5C(CSCCCC(=O)[O-])O[C@H](O[C@@H]6C(CSCCCC(=O)[O-])O[C@H](O[C@@H]7C(CSCCCC(=O)[O-])O[C@H](O[C@H]1C(O)C2O)C(O)C7O)C(O)C6O)C(O)C5O)C(O)C4O)C(O)C3O.[Na+].[Na+].[Na+].[Na+].[Na+].[Na+] (some centres not stated) | < | 4.74
O=C(O)CCOCCSCC1O[C@@H]2O[C@@H]3C(CSCCOCCO)O[C@H](O[C@@H]4C(CSCCOCCO)O[C@H](O[C@@H]5C(CSCCOCCO)O[C@H](O[C@@H]6C(CSCCOCCO)O[C@H](O[C@@H]7C(CSCCOCCO)O[C@H](O[C@@H]8C(CSCCOCCO)O[C@H](O[C@@H]9C(CSCCOCCO)O[C@H](O[C@H]1C(O)C2O)C(O)C9O)C(O)C8O)C(O)C7O)C(O)C6O)C(O)C5O)C(O)C4O)C(O)C3O (some centres not stated) | = | 5.04
